B1: tRNA (parent)
chain: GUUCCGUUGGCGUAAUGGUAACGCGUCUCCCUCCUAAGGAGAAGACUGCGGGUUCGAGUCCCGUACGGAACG

variants of: B1; experiment: yeast fitness relative to wild type (ratio to wild type); higher = fitter; tRNA-Arg(CCU), competitive growth, 37 C, YPD
Fewer inactive variants are shown than the library holds.
OBSERVABLE: yeast fitness

- RESIDUES: "GUUAAGUUGGCGUAAUGGUUACGCGUCUCCUUCCUAAGGAGAAGACUGUGGGUUCGAGUCCCGUACGGAACG [C4A C5A A20U C31U C49U]"
  RESULT: "≤ 0.5"
- RESIDUES: "GUUCCGUUGGCGUAAUGGUAACGCGUCUCCCUCCUUAGGAGUAGAUUGCGGGUUCCAGUCGCGUUCAGAGCG [A36U A42U C46U G56C C61G A65U G67A A70G]"
  RESULT: "≤ 0.5"
- RESIDUES: "GUUCCGUUGGCGUAAUGGUAACGCGUCUCCGUCCUAAUGAGAAGACUGCGGGUUCGAGUCCCGUACGGAACG [C31G G38U]"
  RESULT: 0.804
- RESIDUES: "GUCCCGUUGGCGUAAUGGUGACGCGUCUCCCUUCUAAGGGGAAGACUGCGGGUUCGAGUCCGGUACGGAUCG [U3C A20G C33U A40G C62G A70U]"
  RESULT: "≤ 0.5"
- RESIDUES: "GUUCCGUUGGCGUAAUGGUAACGCGUCUUCCUCCUAAGGAGAAGACUACGGGUUCCAGUCUCGUACGGAACG [C29U G48A G56C C61U]"
  RESULT: "≤ 0.5"
- RESIDUES: "GUUUCGUUGGUGCAAUGGUAACGCGUCUCCCUGCUAAGGCGAAGACUGCGGGUUCGAGUCCCGUACGGAACG [C4U C11U U13C C33G A40C]"
  RESULT: "≤ 0.5"
- RESIDUES: "GUUCCGUUGGCGUAAUGGUAACGCGACUCCCUCCUAAGGAGCAGACUGCGGGUUCGAGUCCCGUACGGAACG [U26A A42C]"
  RESULT: 0.97
- RESIDUES: "GUUCCGUUGGCGUACUGGUAACGCGUCUCUCUGCUAAGGAGAAGACUGCGGGUUCGAGUCCCGUACGGAACG [A15C C30U C33G]"
  RESULT: "≤ 0.5"
- RESIDUES: "GUUCCGUUGGAGUAAUGGUAACGCGUCUCCCUCCUAAGGAGAAGACUGUGGGUUCGAGUCCCGUACGAAACG [C11A C49U G68A]"
  RESULT: "≤ 0.5"
- RESIDUES: "GUUCUGUAGGCGUAAUGGUAACGCGUCUCCCUCCUAACGAGCAGACUGCGGGUUCGAGUCCCAUACGGAACG [C5U U8A G38C A42C G63A]"
  RESULT: 0.534

These data points were gathered from the RNAGym collection of RNA variant scans (doi:10.1126/science.aae0568).
